Test: AUC (0 to infinitive) in Sprague-Dawley rat at 10 mg/kg, po measured after 24 hrs
Type: ADME, organism-based
Parameters: dose 10 mg/kg, time 24 hrs, route po
Conditions: in vivo
readoutLabel: AUC(0-inf) (ng·h/mL)

>>> obsvalue("Nc1nc2cc(-c3nc(N4CCOCC4)nc(N4CCOCC4)n3)ccc2o1")
38100

---

Test: AUC (0 to t) in Sprague-Dawley rat at 10 mg/kg, po measured after 24 hrs
Assay type: ADME, organism-based
Parameters: dose 10 mg/kg, time 24 hrs, route po
Details: in vivo
readoutLabel: AUC(0-t) at 24 h (ng·h/mL)

>>> obsvalue("Nc1nc2cc(-c3nc(N4CCOCC4)nc(N4CCOCC4)n3)ccc2o1")
36700

---

Test: Cmax in Sprague-Dawley rat at 1 mg/kg, iv measured after 24 hrs
Assay type: ADME, organism-based
Set-up: time 24 hrs, dose 1 mg/kg, route iv
Details: in vivo
readoutLabel: Cmax (ng/mL)

>>> obsvalue("Nc1nc2cc(-c3nc(N4CCOCC4)nc(N4CCOCC4)n3)ccc2o1")
455

---

Tested on: HepG2
Assay: Antiproliferative activity against human HepG2 cells assessed as inhibition of cell growth incubated for 72 hrs by CCK8 assay
Type: functional, cell-based
Settings: HepG2, 72 h
readoutLabel: IC50

>>> obsvalue("Nc1nc2cc(-c3nc(N4CCOCC4)nc(N4CCOCC4)n3)ccc2o1")
"430 nM"

---

Biological target: Phosphatidylinositol 4,5-bisphosphate 3-kinase catalytic subunit alpha isoform (Homo sapiens)
Sequence (P42336 whole entry, canonical isoform): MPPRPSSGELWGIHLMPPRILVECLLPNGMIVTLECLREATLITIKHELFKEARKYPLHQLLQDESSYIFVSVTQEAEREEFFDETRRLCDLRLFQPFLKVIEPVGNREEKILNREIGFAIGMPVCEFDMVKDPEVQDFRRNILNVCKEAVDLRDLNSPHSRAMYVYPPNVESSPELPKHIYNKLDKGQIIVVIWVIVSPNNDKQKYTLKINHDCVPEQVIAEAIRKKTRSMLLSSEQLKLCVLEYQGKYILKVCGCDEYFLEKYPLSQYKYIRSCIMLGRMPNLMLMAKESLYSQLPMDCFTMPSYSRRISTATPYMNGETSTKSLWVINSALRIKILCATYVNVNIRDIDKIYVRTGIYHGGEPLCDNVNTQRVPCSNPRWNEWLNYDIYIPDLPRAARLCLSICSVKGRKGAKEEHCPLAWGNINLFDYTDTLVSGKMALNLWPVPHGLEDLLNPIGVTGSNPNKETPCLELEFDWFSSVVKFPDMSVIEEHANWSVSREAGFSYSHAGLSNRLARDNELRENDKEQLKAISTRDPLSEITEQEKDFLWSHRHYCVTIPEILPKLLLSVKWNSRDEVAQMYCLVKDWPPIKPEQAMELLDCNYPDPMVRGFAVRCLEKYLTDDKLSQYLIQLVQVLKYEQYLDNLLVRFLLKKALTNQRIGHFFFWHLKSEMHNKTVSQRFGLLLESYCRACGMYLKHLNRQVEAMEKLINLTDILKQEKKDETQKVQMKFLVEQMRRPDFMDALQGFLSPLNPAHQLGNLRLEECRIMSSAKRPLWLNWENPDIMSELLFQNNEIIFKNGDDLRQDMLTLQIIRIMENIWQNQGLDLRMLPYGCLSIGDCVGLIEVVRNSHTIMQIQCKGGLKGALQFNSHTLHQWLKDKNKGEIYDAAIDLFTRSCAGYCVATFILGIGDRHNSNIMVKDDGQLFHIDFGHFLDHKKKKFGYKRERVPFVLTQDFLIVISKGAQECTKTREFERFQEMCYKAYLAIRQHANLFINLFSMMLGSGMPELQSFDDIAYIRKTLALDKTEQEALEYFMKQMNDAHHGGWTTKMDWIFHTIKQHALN
Experiment: Inhibition of PI3Kalpha (unknown origin) using PIP2 as substrate in presence of ATP measured after 1 hr by ADP-Glo assay
readoutLabel: log10(IC50) (log10 of the value in nM)

>>> obsvalue("CC(C)N1CCN(c2nc(-c3ccc4oc(N)nc4c3)nc(N3CCOCC3)n2)CC1")
3.02
>>> obsvalue("Nc1nc2ccc(-c3nc(N4CCOCC4)nc(N4CCOCC4)n3)cc2s1")
2.55
>>> obsvalue("CN(C)c1nc2cc(-c3nc(N4CCOCC4)nc(N4CCOCC4)n3)ccc2o1")
3.35
>>> obsvalue("Nc1nc2ccc(-c3nc(N4CCOCC4)nc(N4CCC(C(F)(F)F)CC4)n3)cc2s1")
3.73
>>> obsvalue("O=C(Nc1nc2cc(-c3nc(N4CCOCC4)nc(N4CCOCC4)n3)ccc2o1)C1CCCCC1")
3.87

Source of measurements: ChEMBL document CHEMBL5143740
